Measured pIC50 accompanies every entry in the list below.
- TARGET_OR_TEST_SYSTEM: T1, amylin receptors (rat nucleus accumbens membranes) (rat)
- T1 construct: Assayed as a tissue membrane preparation, not on intact cells; also called amylin (nucleus accumbens) receptors
- ASSAY_OVERVIEW: radioligand competition vs 125I-BH-rat amylin, rat nucleus accumbens membranes
No end group written: not given here.
pIC50 (log units): -log10 of the concentration in mol/L.

LSTSVLGRLSQELHRLQTYPRTNTGSNTY-NH2 [Compound 5] | 10.04

Let us move to another entry and its pIC50.
pIC50 measured on LSTAVLGRLSQELHRLQTYPRTNTGSNTY-NH2 (not fully specified) [Compound 4] = 10.18
